Test system: N-His Ich-1
Assay: 100 mM sodium acetate (pH 6.2), 20% (v/v) glycerol, 5 mM dithiothreitol, 0.5 mM EDTA and approximately 15 μg N-His Ich-1
Details: Human, 30° C., up to 60 minutes
Listing of entries alongside the reported not cleaved.

{"columns": ["Substance", "Observed value"],
 "data": [
  ["Ac-HSLDNKDGPVW-NH2", "0% cleavage after 60 minute reaction"],
  ["Ac-WGDEVDGVDEVW-NH2", "0% cleavage after 60 minute reaction"],
  ["Ac-YSDQMDGFHDSW-NH2", "0% cleavage after 60 minute reaction"],
  ["Ac-GEDMQDNSGTYW-NH2", "1% cleavage after 60 minute reaction"]
]}

--- query ---
(Q) Recorded not cleaved for Ac-NEAYVHDAPVRSLY-NH2 , please?
(A) 0% cleavage after 60 minute reaction

---

Molecular target: N-His Ich-1 (Homo sapiens, UniProt P42575)
Construct: contains Ich-1 amino acid residues 167-435, with an initiator and polyhistidine tag fused to the amino terminus; initiator (Met) + polyhistidine tag (N); made in house
Sequence (P42575 184-333): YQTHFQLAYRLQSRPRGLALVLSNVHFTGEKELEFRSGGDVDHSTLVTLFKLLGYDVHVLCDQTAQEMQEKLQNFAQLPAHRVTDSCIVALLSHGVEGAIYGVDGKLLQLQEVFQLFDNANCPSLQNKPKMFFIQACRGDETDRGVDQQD
Sequence (P42575 334-452): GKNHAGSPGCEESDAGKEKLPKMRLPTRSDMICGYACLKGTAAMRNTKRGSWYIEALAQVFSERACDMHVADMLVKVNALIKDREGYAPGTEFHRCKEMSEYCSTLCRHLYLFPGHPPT
Test: In vitro proteolysis assay: cleavage of candidate peptide substrates by N-His Ich-1 (reverse phase HPLC)
Format: biochemical
Conditions: Tables 1-3
Where a SMILES comes first, the peptide text is derived from it.

{"columns": ["Compound", "cleavage by N-His Ich-1 (in words)"],
 "data": [
  ["CC(=O)N[C@H](C(=O)N[C@@H](CC(N)=O)C(=O)N[C@@H](CCC(N)=O)C(=O)N[C@@H](CCC(N)=O)C(=O)N[C@@H](CC(=O)O)C(=O)NCC(=O)N[C@@H](Cc1c[nH]c2ccccc12)C(N)=O)C(C)C [Peptide 25, acetyl-VNQQDGW-amide] (Ac-VNQQDGW-NH2)", "not tolerated"],
  ["CC(=O)N[C@H](C(=O)N[C@@H](CCC(=O)O)C(=O)N[C@@H](CCC(N)=O)C(=O)N[C@@H](CCC(N)=O)C(=O)N[C@@H](CC(=O)O)C(=O)NCC(=O)N[C@@H](Cc1c[nH]c2ccccc12)C(N)=O)C(C)C [Peptide 23, acetyl-VEQQDGW-amide] (Ac-VEQQDGW-NH2)", "not tolerated"]
]}
